- study target: T1, human TREM2 on primary cells (human, UniProt Q9NZC2 19-230)
- T1 construct: also called TREM2 on hDC; hMAC
- T1 sequence: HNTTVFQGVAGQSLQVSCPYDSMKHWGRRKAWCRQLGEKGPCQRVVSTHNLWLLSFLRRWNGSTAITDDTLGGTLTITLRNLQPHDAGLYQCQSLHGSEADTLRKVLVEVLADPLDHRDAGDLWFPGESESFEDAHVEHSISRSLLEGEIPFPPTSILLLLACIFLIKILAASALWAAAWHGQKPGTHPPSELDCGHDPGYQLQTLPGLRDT
- assay method text: FACS, primary hMAC
Item-by-item account of % Positive hMAC

## Task Any idea what % Positive hMAC was measured for 9G1 (antibody, IgG1, V domains shown, mIgG1) VH: QVQLQQSGAELVKPGASVKLSCKASGYIFTTYWIHWVKQRPGRGPEWIGRIDPNNGDTNYNEKFKTKATLTVDKPSSTADMQLSSLTSEDSAVYYCVMTGTDFDYWGQGTTLTVSS VL: DVLMTQTPLSLPVSLGDQASISCRFSQSLVHSNGNTYLHWYLQKPGQSPKLLIYKVSNRFSGVPDRFSGSGSGTDFTLRISGVEAEDLGVYFCSQSTRVPPTFGGGTKLEIK ?
## Result 20%

## Task Any idea what % Positive hMAC was measured for 8A1 (antibody, IgG2a, V domains shown, mIgG2a) VH: EVQLQQSGAELVKPGASVKISCKASGYAFSNYWMSWVKQRPGKGLEWIGQIYPGDGDTKYNGKFEGKATLTADKSSSTAYMQLSSLTSEDSAVYFCSREKGADYYGSTYSAWFSYWGQGTLVTVSA VL: DIQMTQSPASLSVSVGETVTITCRTSENVYSNLAWYQQKQGKSPQLLVYAATNLADGVPSRFSASGSATQFSLKINSLQSADFGSYYCHHFWGTPYTFGGGTKLEMN ?
## Result 34%

## Task Any idea what % Positive hMAC was measured for 3A2 (antibody, IgG1, V domains shown, mIgG1; variable domains built FR1-HVR1-FR2-HVR2-FR3-HVR3-FR4) VH: QVQLQQSGAELVKPGASVKMSCKTSGYPFSNFWITWVKQRPGQGLVWIGDIYPGSDNSNYNEKFKTKATLTVDTSSSTAYMHLSSLTSEDSAVYFCAREAYYTNPGFAYWGQGTLVTVST VL: DVVMTQTPLSLPVSLGDQASISCRSSQTIIHSNGNTYLEWYLRKPGQSPKLLIYKVSNRFSGVPDRFSGSGSGTDFTLKISRVEAEDLGVYYCFQGSHVPYTFGGGTELEIK ?
## Result 18%

## Task Any idea what % Positive hMAC was measured for 9F5 (antibody, IgG1, V domains shown, mIgG1; VH FR 169/184/202/216, HVR 60/78/97; also called mAb T2-9F5.1; 9F5 MAb) VH: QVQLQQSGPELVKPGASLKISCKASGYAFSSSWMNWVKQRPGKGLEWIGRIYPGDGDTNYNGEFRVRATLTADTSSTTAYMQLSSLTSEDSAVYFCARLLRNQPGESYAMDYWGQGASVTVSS VL: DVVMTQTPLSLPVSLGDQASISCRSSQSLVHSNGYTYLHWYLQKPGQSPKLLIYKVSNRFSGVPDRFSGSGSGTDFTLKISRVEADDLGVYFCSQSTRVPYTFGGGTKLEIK ?
## Result 26%

## Task Any idea what % Positive hMAC was measured for 10A9 (antibody, IgG1, V domains shown, mIgG1) VH: QVQLQQSGAEVVKPGASVKMSCKTSGYPFSNFWITWVKQRPGQGLVWIGDIYPGSDNRNFNERFKTKATLTVDTSSSTAYMHLSSLTSEDSAVYFCAREAYYTNPGFAYWGQGTLVTVSA VL: DVVMTQTPLSLPVSLGDQASISCRSSQTIIHSNGNTYLEWYLRKPGQSPKLLIYKVSNRFCGVPDRFSGSGSGTDFTLKISRVEAEDLGVYYCFQGSHVPYTFGGGTELEIK ?
## Result 64%
